Consider the following binders and their measured IC50, cell viability (CellTiter-Glo, 72 h), Bt549 cells readings.
Target: human receptor tyrosine kinase like orphan receptor 1 (ROR1) (human, UniProt Q01973 30-937)
Sequence (Q01973 30-937): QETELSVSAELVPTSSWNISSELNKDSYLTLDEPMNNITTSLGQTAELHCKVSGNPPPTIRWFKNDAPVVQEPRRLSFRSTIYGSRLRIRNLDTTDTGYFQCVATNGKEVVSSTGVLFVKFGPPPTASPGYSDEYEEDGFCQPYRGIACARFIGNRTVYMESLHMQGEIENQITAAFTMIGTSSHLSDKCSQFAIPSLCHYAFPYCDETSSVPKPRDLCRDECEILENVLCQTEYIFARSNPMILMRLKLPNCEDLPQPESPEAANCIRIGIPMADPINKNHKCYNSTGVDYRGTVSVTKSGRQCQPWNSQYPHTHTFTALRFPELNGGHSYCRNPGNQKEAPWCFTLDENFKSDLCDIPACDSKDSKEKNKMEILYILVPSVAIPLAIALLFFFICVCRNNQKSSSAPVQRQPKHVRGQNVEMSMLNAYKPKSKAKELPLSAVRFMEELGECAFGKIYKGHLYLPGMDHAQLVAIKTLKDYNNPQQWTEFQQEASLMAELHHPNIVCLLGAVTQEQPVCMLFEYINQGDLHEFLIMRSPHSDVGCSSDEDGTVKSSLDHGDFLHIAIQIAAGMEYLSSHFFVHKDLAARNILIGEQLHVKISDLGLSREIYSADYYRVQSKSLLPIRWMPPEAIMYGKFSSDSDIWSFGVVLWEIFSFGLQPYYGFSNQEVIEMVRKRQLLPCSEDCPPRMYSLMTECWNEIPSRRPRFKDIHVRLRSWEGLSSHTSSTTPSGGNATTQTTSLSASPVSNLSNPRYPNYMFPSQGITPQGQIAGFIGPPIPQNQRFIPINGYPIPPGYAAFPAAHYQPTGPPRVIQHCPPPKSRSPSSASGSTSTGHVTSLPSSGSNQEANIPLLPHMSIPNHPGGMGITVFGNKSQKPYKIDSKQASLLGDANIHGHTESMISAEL
Test: cell-based or functional assay
// return numeric value only (unit: nM, not printed)

Q: Give the measured IC50, cell viability (CellTiter-Glo, 72 h), Bt549 cells of ADC-B (antibody, human IgG1, kappa, V domains shown, SMCC-DM1 bonded via lysine residues of the antibody (chain and positions not stated); SMCC-DM1 bonded via lysine residues of the antibody (chain and positions not stated); DAR 3.0 to 3.20) VH: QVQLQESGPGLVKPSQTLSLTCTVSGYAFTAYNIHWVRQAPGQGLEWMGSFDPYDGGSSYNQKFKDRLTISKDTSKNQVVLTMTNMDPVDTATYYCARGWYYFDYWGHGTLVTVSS VL: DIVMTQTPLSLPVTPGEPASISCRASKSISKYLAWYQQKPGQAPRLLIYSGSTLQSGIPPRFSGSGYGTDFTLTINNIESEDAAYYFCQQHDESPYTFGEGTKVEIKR .
A: 20.2

The record that follows has no IC50, cell viability (CellTiter-Glo, 72 h), Bt549 cells shown yet.
Q: Give the measured IC50, cell viability (CellTiter-Glo, 72 h), Bt549 cells of ADC-A (antibody, human IgG1, kappa, V domains shown, MC-VC-PAB-MMAE bonded via cysteine residues of the antibody (chain and positions not stated); MC-VC-PAB-MMAE bonded via cysteine residues of the antibody (chain and positions not stated); DAR 3.89 to 5.09, Antibody-drug conjugate of Ab1; also called Ab1-MC-VC-PAB-MMAE) VH: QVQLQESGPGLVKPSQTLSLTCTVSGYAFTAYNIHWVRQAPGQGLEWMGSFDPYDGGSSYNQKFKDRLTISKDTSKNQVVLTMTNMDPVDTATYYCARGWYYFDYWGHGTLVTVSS VL: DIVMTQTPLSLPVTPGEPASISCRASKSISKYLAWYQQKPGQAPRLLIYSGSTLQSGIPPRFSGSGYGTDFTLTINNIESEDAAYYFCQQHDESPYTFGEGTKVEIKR .
A: 13.5
